Value source: patent US11136348B2

Form field: Percent change in total protein at 0.1 µM (one value per entry).
System: C2C12 skeletal myotubes
Assay: Total cellular protein content in C2C12 skeletal myotubes (BCA)
Format: cell-based, Mouse
Conditions: Mus musculus, C2C12; 0.1 μM, 48 h incubation, vs vehicle (0.1% DMSO)
readout_type: Percent change in total protein at 0.1 µM (%)

molecule	measured_result
CC1=C(CC[C@H](C)CNC(=O)OCC(C)C)O[C@H]2C[C@H]3[C@@H]4CC[C@H]5C[C@@H](O)CC[C@]5(C)[C@H]4CC[C@]3(C)[C@@H]12	-0.1
CC1=C(CC[C@H](C)CNC(C)C(F)F)O[C@H]2C[C@H]3[C@@H]4CC[C@H]5C[C@@H](O)CC[C@]5(C)[C@H]4CC[C@]3(C)[C@@H]12 (stereo partly drawn)	1.2
CC(=O)O[C@H]1CC[C@@]2(C)[C@@H](CC[C@@H]3[C@@H]2CC[C@@]2(C)[C@H]3C[C@@H]3OC(CC[C@H](C)CNC(=O)OC(C)(C)C)=C(C)[C@@H]32)C1	4
